Numbers sourced from patent US9833497B2.

system: Enterobacter cloacae; test: MIC against Gram-negative bacteria: Enterobacter cloacae; assay type: cell-based; conditions: 96-well plate, 5×10^5 CFU/mL, 37° C., 10 h
parameter: MIC against E. cloacae

INSERT INTO results (substance, parameter, assayresult) VALUES
  ('PRT544 (CDCGARLCDELTGQCICPPRTIPPDCLLCQPQTFGCHPLVGCEE; listed as Homo sapiens)', 'MIC against E. cloacae', '12.5 µg/mL'),
  ('PRT469 (NCSTTCFNGGTCFYPGKCICPPGLEGEQCE; listed as Homo sapiens)', 'MIC against E. cloacae', '50 µg/mL'),
  ('PRT533 (GTINSNLGYCQCKLHVEGPTCSRCKLLYWNLDKENPSGCSE; listed as Homo sapiens)', 'MIC against E. cloacae', '50 µg/mL'),
  ('PRT448 (SFRCQCEPGFQLGPNNRSCVDVNE; listed as Homo sapiens)', 'MIC against E. cloacae', '12.5 µg/mL'),
  ('PRT498 (CDCNPHGSVHGDCDRTSGQCVCRLGASGLRCDECEPRHILMETDCVS; listed as Homo sapiens)', 'MIC against E. cloacae', '12.5 µg/mL'),
  ('PRT470 (KCPQPCRNGGKCIGKSKCKCSKGYQGDLCS; listed as Homo sapiens)', 'MIC against E. cloacae', '50 µg/mL'),
  ('PRT584 (CQCSHEGALSSLCEKTSGQCLCRTGAFGLRCDRCQRGQWGFPSCRP; listed as Homo sapiens)', 'MIC against E. cloacae', '25 µg/mL'),
  ('PRT508 (CECSHLGNNCDPKTGRCICPPNTIGEKCSKCAPNTWGHSITTGCKA; listed as Homo sapiens)', 'MIC against E. cloacae', '12.5 µg/mL'),
  ('PRT496 (CSCNNHSDTCDPNTGKCLNCGDNTAGDHCDVCTSGYYGKVTGSASDCAL; listed as Homo sapiens)', 'MIC against E. cloacae', '50 µg/mL'),
  ('PRT573 (CPCPDGPDSGRQFARSCYQDPVTLQLACVCDPGYIGSRCDDCASGYFGNPSEVGGSCQP; listed as Homo sapiens)', 'MIC against E. cloacae', '25 µg/mL'),
  ('PRT455 (DVNECSQENGGCLQICHNKPGSFHCSCHSGFELSSDGRTCQ; listed as Homo sapiens)', 'MIC against E. cloacae', '50 µg/mL'),
  ('PRT463 (DVNECLQLPKACAYQCHNLQGSYRCLCPPGQTLLRDGKACT; listed as Homo sapiens)', 'MIC against E. cloacae', '50 µg/mL'),
  ('PRT553 (CQCPGGRCDPHTGRCNCPPGLSGERCDTCSQQHQVPVPGGPVGHSIHCEV; listed as Homo sapiens)', 'MIC against E. cloacae', '25 µg/mL'),
  ('PRT567 (CTCDPAGSQNEGICDSYTDFSTGLIAGQCRCKLNVEGEHCDVCKEGFYDLSSEDPFGCKS; listed as Homo sapiens)', 'MIC against E. cloacae', '50 µg/mL'),
  ('PRT468 (LCTPRCMNGGLCVTPGFCICPPGFYGVNCD; listed as Homo sapiens)', 'MIC against E. cloacae', '25 µg/mL');

====

tested on: Proteus vulgaris; assay: MIC against Gram-negative bacteria: Proteus vulgaris; format: cell-based; settings: P. vulgaris; 10 h cultivation at 37° C.; 5×10^5 CFU/mL
Overview of reported MIC (μg/mL) P. vulgaris across a group of substances:
parameter: MIC (μg/mL) P. vulgaris (µg/mL)

INSERT INTO assay_data (substance, measurementtarget, parameter, assayresult) VALUES
  ('PRT166 (NGSPCQHGGTCVDDEGRASHASCLCPPGFSGNFCE; listed as Homo sapiens)', 'Proteus vulgaris', 'MIC (μg/mL) P. vulgaris', 12.5),
  ('PRT799 (FHACSCHNGASCSAEDGACHCTPGWTGLFCT; listed as Homo sapiens)', 'Proteus vulgaris', 'MIC (μg/mL) P. vulgaris', 50),
  ('PRT829 (FGPSCTLHCDCGGGADCDPVSGQCHCVDGYMGPTCR; listed as Homo sapiens)', 'Proteus vulgaris', 'MIC (μg/mL) P. vulgaris', 12.5),
  ('PRT148 (LTDICSVSNGGCHPDASCSSTLGSLPLCTCLPGYTGN; listed as Homo sapiens)', 'Proteus vulgaris', 'MIC (μg/mL) P. vulgaris', 12.5),
  ('PRT838 (GLQECSAYCGSHGTCASPLGPCRCEPGFLGRACD; listed as Homo sapiens)', 'Proteus vulgaris', 'MIC (μg/mL) P. vulgaris', 12.5),
  ('PRT836 (FGHDCSLTCDDCRNGGTCLLGLDGCDCPEGWTGLICN; listed as Homo sapiens)', 'Proteus vulgaris', 'MIC (μg/mL) P. vulgaris', 25),
  ('PRT183 (ECIPHNGCRHGTCSTPWQCTCDEGWGGLFCD; listed as Homo sapiens)', 'Proteus vulgaris', 'MIC (μg/mL) P. vulgaris', 25),
  ('PRT236 (TKTSCAKCPPNASCVNNTHCTCNHGYTSGSGQKLFTFPLETCN; listed as Homo sapiens)', 'Proteus vulgaris', 'MIC (μg/mL) P. vulgaris', 25),
  ('PRT254 (PCLEGGTCILSPKGASCNCPHPYTGDRCE; listed as Homo sapiens)', 'Proteus vulgaris', 'MIC (μg/mL) P. vulgaris', 12.5),
  ('PRT219 (DIDECRTSSYLCQYQCVNEPGKFSCMCPQGYQVVRSRTCQ; listed as Homo sapiens)', 'Proteus vulgaris', 'MIC (μg/mL) P. vulgaris', 25),
  ('PRT257 (CTDGHRGGCSEHANCLSTGLNTRRCECHAGYVGDGLQC; listed as Homo sapiens)', 'Proteus vulgaris', 'MIC (μg/mL) P. vulgaris', 12.5),
  ('PRT224 (DVNECDMGAPCEQRCFNSYGTFLCRCHQGYELHRDGFSCS; listed as Homo sapiens)', 'Proteus vulgaris', 'MIC (μg/mL) P. vulgaris', 12.5),
  ('PRT199 (CLPETCNMKGICNNKHHCHCGYGWSPPYCQ; listed as Homo sapiens)', 'Proteus vulgaris', 'MIC (μg/mL) P. vulgaris', 12.5),
  ('PRT832 (DVDECAAGLAQCAHGCLNTQGSFKCVCHAGYELGADGRQCY; listed as Homo sapiens)', 'Proteus vulgaris', 'MIC (μg/mL) P. vulgaris', 25),
  ('PRT260 (CRAGNGGCHGLATCRAVGGGQRVCTCPPGFGGDGFSC; listed as Homo sapiens)', 'Proteus vulgaris', 'MIC (μg/mL) P. vulgaris', 12.5),
  ('PRT846 (CNCSVVGSLNVNRCNQTTGQCECRPGYQGLHCETCKEGFYLNYTSGLCQP; listed as Homo sapiens)', 'Proteus vulgaris', 'MIC (μg/mL) P. vulgaris', 12.5);

====

system: Aeromonas hydrophila; assay: MIC against Gram-negative bacteria: Aeromonas hydrophila; format: cell-based; details: A. hydrophila; 10 h cultivation at 37° C.; 5×10^5 CFU/mL
parameter: MIC (μg/mL) A. hydrophila (µg/mL)

INSERT INTO assay_data (substance, measurementtarget, measurementunit, assayresult) VALUES
  ('PRT759 (RVDYCLLSDHGCEYSCVNMDRSFACQCPEGHVLRSDGKTCA; listed as Homo sapiens)', 'Aeromonas hydrophila', 'µg/mL', 12.5),
  ('PRT230 (DVDECADPRACPEHATCNNTVGNYSCFCNPGFESSSGHLSFQGLKASCE; listed as Homo sapiens)', 'Aeromonas hydrophila', 'µg/mL', 12.5),
  ('PRT207 (RSSNCSAQCHNHGVCNHKQECHCHAGWAPPHCA; listed as Homo sapiens)', 'Aeromonas hydrophila', 'µg/mL', 50),
  ('PRT239 (SAGPCTPNPCHNGGTCEISEAYRGDTFIGYVCKCPRGFNGIHCQ; listed as Homo sapiens)', 'Aeromonas hydrophila', 'µg/mL', 12.5),
  ('PRT763 (ALDRCALNTHGCEHICVNDRSGSYHCECYEGYTLNEDRKTCS; listed as Homo sapiens)', 'Aeromonas hydrophila', 'µg/mL', 25),
  ('PRT817 (FGPGCEQRCQCQHGAACDHVSGACTCPAGWRGTFCE; listed as Homo sapiens)', 'Aeromonas hydrophila', 'µg/mL', 25),
  ('PRT227 (KGNNCRDSTLCPAYATCTNTVDSYYCACKQGFLSSNGQNHFKDPGVRCK; listed as Homo sapiens)', 'Aeromonas hydrophila', 'µg/mL', 12.5),
  ('PRT809 (NESCTCANGAACSPIDGSCSCTPGWLGDTCE; listed as Homo sapiens)', 'Aeromonas hydrophila', 'µg/mL', 12.5);

====

test system: Pseudomonas aeruginosa; experiment: MIC against Gram-negative bacteria: Pseudomonas aeruginosa; assay type: cell-based; conditions: Pseudomonas aeruginosa; 5×10^5 CFU/mL; 10 h cultivation at 37° C.
Overview of reported MIC against P. aeruginosa across a group of substances:
parameter: MIC against P. aeruginosa (µg/mL)

INSERT INTO measurements (substance, measurementunit, assayresult) VALUES
  ('PRT1464 (CNCDKTGTINGSLLCNKSTGQCPCKLGVTGLRCNQCEPHRYNLTIDNFQHCQM; listed as Homo sapiens)', 'µg/mL', 12.5),
  ('PRT1473 (SFLNCSLDNGGCTHYCLEEVGWRRCSCAPGYKLGDDLLQCH; listed as Homo sapiens)', 'µg/mL', 25),
  ('PRT1389 (PEEQCIDPTCFGHGTCIMGVCICVPGYKGEICE; listed as Homo sapiens)', 'µg/mL', 25),
  ('PRT1355 (AELSCPNDCHGQGRCVNGQCVCHEGFMGKDCK; listed as Homo sapiens)', 'µg/mL', 12.5);
